- testSystem: T1, Human FGF19 (human, UniProt O95750 25-216)
- T1 construct: Recombinant soluble protein; also called huFGF19; Fibroblast growth factor 19
- T1 sequence (O95750 25-216 limits assumed): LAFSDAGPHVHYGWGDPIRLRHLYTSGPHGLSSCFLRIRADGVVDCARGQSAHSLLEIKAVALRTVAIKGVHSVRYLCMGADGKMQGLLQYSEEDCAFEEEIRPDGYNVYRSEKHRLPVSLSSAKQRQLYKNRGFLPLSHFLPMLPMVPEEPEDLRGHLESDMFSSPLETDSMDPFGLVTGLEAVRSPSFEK
- testProtocol: SPR (BIAcore 2000), IgG on chip, soluble human FGF19
testReadout: Kd (fold faster), against chimeric 1A6 (fold)
Quick note: give the figure in fold, leave out the unit.

binder	outputUnit	Kd (fold faster), against chimeric 1A6
hu1A6.V34A (HVR-H1) (antibody, name in Kabat numbering, V domains shown) VH: EVQLVESGGGLVQPGGSLRLSCAASGFSLTTYGAHWVRQAPGKGLEWVGVIWPGGGTDYNAAFISRFTISRDNSKNTLYLQMNSLRAEDTAVYYCVRKEYANLYAMDYWGQGTLVTVSS VL: DIQMTQSPSSLSASVGDRVTITCKASQDINSFLSWYQQKPGKAPKLLIYRANRLVDGVPSRFSGSGSGTDFTLTISSLQPEDFATYYCLQYDEFPLTFGQGTKVEIKR	fold	0.9

Ask | Quick one: Kd (fold faster), against chimeric 1A6 for hu1A6.Q90S (HVR-L3) (antibody, V domains shown) VH: EVQLVESGGGLVQPGGSLRLSCAASGFSLTTYGVHWVRQAPGKGLEWVGVIWPGGGTDYNAAFISRFTISRDNSKNTLYLQMNSLRAEDTAVYYCVRKEYANLYAMDYWGQGTLVTVSS VL: DIQMTQSPSSLSASVGDRVTITCKASQDINSFLSWYQQKPGKAPKLLIYRANRLVDGVPSRFSGSGSGTDFTLTISSLQPEDFATYYCLSYDEFPLTFGQGTKVEIKR ?
Reply | 1.5

Ask | Another binder to look at: hu1A6.A100bR (HVR-H3) (antibody, name in Kabat numbering, V domains shown) VH: EVQLVESGGGLVQPGGSLRLSCAASGFSLTTYGVHWVRQAPGKGLEWVGVIWPGGGTDYNAAFISRFTISRDNSKNTLYLQMNSLRAEDTAVYYCVRKEYANLYRMDYWGQGTLVTVSS VL: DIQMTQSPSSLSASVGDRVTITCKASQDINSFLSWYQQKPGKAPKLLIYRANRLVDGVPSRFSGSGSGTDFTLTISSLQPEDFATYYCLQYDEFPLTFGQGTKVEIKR
Reply | 0.9
